System: CAKI-1 renal
Test: NCI tumour cell line growth inhibition, 48 h
ENDPOINT: TGI

MOLECULE	TGI
COc1cc(/C=N\NC(=O)CN2CCN(c3cc4c(cc3F)c(=O)c(C(=O)N/N=C/c3cc(OC)c(OC)c(OC)c3)cn4C3CC3)CC2)cc(OC)c1OC	> 100 µM
COc1cccc(C(=O)O[C@H]2[C@@H]3[C@]4(OC(C)=O)CO[C@@H]4C[C@H](O)[C@@]3(C)C(=O)[C@H](OC(C)=O)C3=C(C)[C@@H](OC(=O)[C@H](O)[C@@H](NC(=O)OC(C)(C)C)c4ccco4)C[C@]2(O)C3(C)C)c1	> 37.5 µM
Cc1nc2c(ccc3ncccc32)[nH]1	> 100 µM
Nc1nc(Cl)cc(NCC2(CO)CC(=O)C2)n1	> 100 µM
COc1ccc(CC2c3cc4c(cc3CCN2C)OCO4)c(C=O)c1OC (configuration not stated)	> 100 µM

Measured TGI of C=C(C)C(=O)OC1C/C(CO)=C\C(O)C/C(C)=C/C2OC(=O)C(=C)C21 (configuration not stated) : 58.7 µM

Record O=C(O)CCNCCCNCCC(=O)O . Reported TGI: > 100 µM

CCCCCCCCCCCC(=O)OCCOCCOCCOCCOCCOCc1ccccc1 has a reported TGI of > 100 µM

----------
System: RPMI-8226 leukemia
Assay: NCI tumour cell line growth inhibition, 48 h
The entries below are paired with their reported TGI.

Take a look at these entries with their results.
COMPOUND	STUDY_SYSTEM	RECORDED_VALUE
COC(=O)c1ccccc1CC1Cc2ccc3c(c2C1=O)CCCC3 (stereo unspecified)	RPMI-8226 leukemia	> 75.5 µM
Nc1ccccc1S(=O)(=O)N(CC(=O)O)c1ccccc1	RPMI-8226 leukemia	> 100 µM
O=[N+]([O-])c1ccc2c(c1)c(OCc1ccccc1)nn2Cc1ccccc1	RPMI-8226 leukemia	> 100 µM
COC([CH2][Hg][n]1cnc2c1c(=O)n(C)c(=O)n2C)CN1C(=O)c2ccccc2S1(=O)=O (stereo unspecified)	RPMI-8226 leukemia	> 100 µM
Cc1cc(N(CCC#N)CCC#N)ccc1N=Nc1ccc(S(N)(=O)=O)cc1	RPMI-8226 leukemia	> 100 µM
Nc1nc(-n2c(-c3ccccc3)nc3c(Br)cc(Br)cc3c2=O)nnc1-c1cccc(Cl)c1Cl	RPMI-8226 leukemia	> 100 µM
CCOC1Oc2ccccc2C(=O)/C1=C/Nc1ccc(C(C)=O)cc1 (stereo unspecified)	RPMI-8226 leukemia	68.3 µM
NC(=O)NCCCC(NC(=O)OCCCCn1ccc(=O)[nH]c1=O)C(=O)O (stereo unspecified)	RPMI-8226 leukemia	> 100 µM
O=c1c2cc([N+](=O)[O-])cnc2sn1-c1ccc([N+](=O)[O-])cc1	RPMI-8226 leukemia	81.2 µM
CCN1/C(=C\c2cc[n+](CC)c3ccccc23)C=Cc2ccccc21	RPMI-8226 leukemia	0.753 µM

Now consider a different compound.
The recorded TGI with RPMI-8226 leukemia for Cc1c(O)c(O)cc[n+]1C1OC(CO)C(O)C1O (stereo unspecified) was > 100 µM

----------
Test system: M14 melanoma
Experiment: NCI tumour cell line growth inhibition, 48 h
Quick reference: TGI of the listed items.

Kindly note the recorded TGI for C[N+](C)(C)CC(=O)N/N=C(/CC(=O)CC(C1=C(O)c2ccccc2OC1)c1ccccc1)C(=O)Nc1cccc(Cl)c1 (configuration not stated) , which is > 100 µM

The molecule listed as COc1ccc2c(c1)sc1nc(-c3ccccc3)c(-c3cccc4ccccc34)n12 has a reported TGI of > 100 µM

The recorded TGI for CC(C)=CCc1c2c(c3occ(-c4ccc(O)cc4)c(=O)c3c1O)CC(C(C)(C)O)O2 (configuration not stated) is 28.2 µM

Notebook: CC1(C)N=[N+]([O-])C1(C)C , TGI read as > 100 µM

Per the records, this molecule ( COC(=O)c1cc(=O)nc2sc3cccc(C)c3n12 ) has TGI equal to > 100 µM

Entry Cc1ccc(N=NC(=Nc2ccccc2)c2ccc(N(CCC#N)CCC#N)cc2)cc1 ; TGI = > 100 µM

Short answer for S=C1Nc2ccccc2SC1c1ccccc1 (configuration not stated) : TGI was > 100 µM

response.value for O=C1/C(=C/c2ccccc2)N=C2Sc3c(nc[nH]c3=O)N12 (field: TGI) = > 100 µM

For this molecule ( CNS(=O)(=O)NNS(=O)(=O)c1ccccc1 ), measured TGI is > 100 µM

Reported TGI of O=C1CC(NC(=O)C(F)(F)F)c2c(Br)sc(N3CCNCC3)c21 (configuration not stated) : > 100 µM

Record O=C1CCCc2cc3c(cc21)CC1(Cc2ccccc2C1)C3 , field TGI: 25.3 µM

Record summary for CN(C)C(=O)O/N=C1/C(c2c(O)[nH]c3ccccc23)=Nc2ccccc21 : reported TGI = > 100 µM

molecule COc1cccc(C2c3cc4c(cc3OC(C)(N3CCCC3)C2C)OCO4)c1O (configuration not stated) , TGI observed: 14 µM

TGI for C=CCO[C@H]1CO[C@H]2[C@@H]1OC[C@@H]2Oc1ccc(Nc2ccnc(Nc3ccc(O[C@H]4CO[C@H]5[C@@H]4OC[C@@H]5OCC=C)c(Cl)c3)n2)cc1Cl is 3.4 µM

What the record says about OCCN(CCO)c1ncnc2c1ncn2Cc1ccc(CCl)cc1 : TGI is 28.4 µM

Quick note, TGI for CCOC(=O)Cn1c(C(F)(F)F)nc2nc(Cl)c(Cl)nc21 landed at > 100 µM
